Target: Cannabinoid receptor 2 (Homo sapiens)
Sequence (P34972 whole entry): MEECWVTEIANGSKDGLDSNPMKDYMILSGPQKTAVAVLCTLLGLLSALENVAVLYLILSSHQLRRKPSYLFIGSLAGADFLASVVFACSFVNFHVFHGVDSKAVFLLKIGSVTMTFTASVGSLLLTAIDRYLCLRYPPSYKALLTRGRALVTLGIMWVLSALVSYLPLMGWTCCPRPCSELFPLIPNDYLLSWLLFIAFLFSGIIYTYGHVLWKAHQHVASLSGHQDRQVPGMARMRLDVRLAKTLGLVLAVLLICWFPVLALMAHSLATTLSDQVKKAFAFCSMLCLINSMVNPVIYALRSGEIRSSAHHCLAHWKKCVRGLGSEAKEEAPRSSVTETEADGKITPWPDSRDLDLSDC
Assay: Agonist activity at human cloned CB2 receptor expressed in CHO cells assessed as inhibition of forskolin-induced cAMP accumulation relative to control
Type: functional, cell-based
Property name: Emax (%)

>  <Molecule>
COc1ccc(F)c(-c2c[nH]c(-c3cccc(CN4CCC(F)(F)CC4)c3)n2)c1

>  <Property name>
Emax

>  <Measured number>
107

$$$$
>  <Molecule>
C[C@H]1COCCN1Cc1cccc(-c2nc(-c3cccc(C(F)(F)F)c3)c[nH]2)c1

>  <Property name>
Emax

>  <Measured number>
78

$$$$
>  <Molecule>
CC1CN(Cc2ccccc2-c2nc(-c3cccc(C(F)(F)F)c3)c[nH]2)CCO1 (stereo not given)

>  <Property name>
Emax

>  <Measured number>
102

$$$$
>  <Molecule>
COc1ccc(F)c(-c2c[nH]c(-c3cccc(CN4CCC(F)CC4)c3)n2)c1

>  <Property name>
Emax

>  <Measured number>
106

$$$$
>  <Molecule>
FC1(F)CCCN(Cc2cccc(-c3nc(-c4cccc(C(F)(F)F)c4)c[nH]3)c2)C1

>  <Property name>
Emax

>  <Measured number>
98

$$$$

====

Biological target: Cannabinoid receptor 1 (Homo sapiens)
Sequence (P21554 whole entry): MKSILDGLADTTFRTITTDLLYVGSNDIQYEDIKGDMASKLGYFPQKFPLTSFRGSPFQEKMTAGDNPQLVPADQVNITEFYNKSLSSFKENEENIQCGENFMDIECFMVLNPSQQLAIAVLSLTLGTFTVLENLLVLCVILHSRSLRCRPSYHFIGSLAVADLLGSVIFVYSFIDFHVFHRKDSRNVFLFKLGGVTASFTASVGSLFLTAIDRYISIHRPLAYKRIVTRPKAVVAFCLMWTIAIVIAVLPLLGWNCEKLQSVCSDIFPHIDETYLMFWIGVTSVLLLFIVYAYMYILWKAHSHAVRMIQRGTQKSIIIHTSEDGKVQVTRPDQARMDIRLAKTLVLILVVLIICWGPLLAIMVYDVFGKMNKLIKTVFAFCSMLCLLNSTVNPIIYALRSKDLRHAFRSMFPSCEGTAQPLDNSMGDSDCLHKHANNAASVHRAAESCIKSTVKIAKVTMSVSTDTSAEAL
Assay: Agonist activity at human cloned CB1 receptor expressed in CHO cells assessed as inhibition of forskolin-induced cAMP accumulation
pEC50: −log10 of the molar value.
Property name: pEC50

Past entries and their recorded results:
>  <Molecule>
FC(F)(F)c1cccc(-c2c[nH]c(-c3cccc(CN4CCCCC4)c3)n2)c1

>  <Result>
< 5.00

$$$$
>  <Molecule>
O[C@H]1CCCN(Cc2cccc(-c3nc(-c4cccc(C(F)(F)F)c4)c[nH]3)c2)C1

>  <Result>
< 5.00

$$$$
>  <Molecule>
CC1CN(Cc2cccc(-c3nc(-c4cccc(C(F)(F)F)c4)c[nH]3)c2)CCO1 (centres undefined)

>  <Result>
< 5.00

$$$$

Inquiry: # return recorded pEC50 for entry FC(F)(F)c1cccc(-c2cn(Cc3ccccc3)c(-c3cccc(CN4CCOCC4)c3)n2)c1
Reply text: < 6.00

====

Target: Cannabinoid receptor 2 (Homo sapiens)
Test: Agonist activity at human cloned CB2 receptor expressed in CHO cells assessed as inhibition of forskolin-induced cAMP accumulation
Assay type: functional, cell-based
pEC50: −log10 of the molar value.
Property name: pEC50

>  <Compound>
CC(=O)n1cc(-c2cccc(C(F)(F)F)c2)nc1-c1cccc(CN2CCOCC2)c1

>  <Property name>
pEC50

>  <Measured number>
8.05

$$$$
>  <Compound>
OCC1CCCN(Cc2cccc(-c3nc(-c4cccc(C(F)(F)F)c4)c[nH]3)c2)C1 (stereo unspecified)

>  <Property name>
pEC50

>  <Measured number>
7.21

$$$$
>  <Compound>
O=C(c1ccccc1)n1cc(-c2cccc(C(F)(F)F)c2)nc1-c1cccc(CN2CCOCC2)c1

>  <Property name>
pEC50

>  <Measured number>
7.96

$$$$
>  <Compound>
CC1CCN(Cc2cccc(-c3nc(-c4cccc(Cl)c4Cl)c[nH]3)c2)CC1

>  <Property name>
pEC50

>  <Measured number>
7.60

$$$$
>  <Compound>
CC1CN(Cc2cccc(-c3nc(-c4cccc(C(F)(F)F)c4)c[nH]3)c2)CCO1 (stereo unspecified)

>  <Property name>
pEC50

>  <Measured number>
7.60

$$$$
>  <Compound>
Clc1cccc(-c2c[nH]c(-c3cccc(CN4CCCCC4)c3)n2)c1Cl

>  <Property name>
pEC50

>  <Measured number>
8.10

$$$$

(A) FC1CCN(Cc2cccc(-c3nc(-c4cccc(C(F)(F)F)c4)c[nH]3)c2)CC1
(B) COc1ccc(F)c(-c2c[nH]c(-c3cccc(CN4CCC(F)(F)CC4)c3)n2)c1
(C) C[C@H]1COCCN1Cc1cccc(-c2nc(-c3cccc(C(F)(F)F)c3)c[nH]2)c1
Inquiry: Put these in order: smallest pEC50 first, largest last. Reply with the item labels sorted in the order that was asked for.
Reply text: C, A, B
(C: 6.77, A: 8.05, B: 8.30)
